System: SNAP-hSPR (sepiapterin reductase, SPR) (Homo sapiens, UniProt P35270) | Read-out: IC50
Sequence (P35270 whole entry): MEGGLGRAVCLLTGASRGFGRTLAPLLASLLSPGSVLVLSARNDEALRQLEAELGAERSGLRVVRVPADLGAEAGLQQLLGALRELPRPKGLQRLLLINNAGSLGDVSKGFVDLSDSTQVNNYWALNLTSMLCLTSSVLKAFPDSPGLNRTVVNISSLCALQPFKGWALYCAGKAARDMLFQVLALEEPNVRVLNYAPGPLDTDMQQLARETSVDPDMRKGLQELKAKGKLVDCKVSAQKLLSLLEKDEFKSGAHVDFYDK
observable: IC50 (nM)

- compound: "Cc1c(C(=O)N2CCC(c3c[nH]c4ccccc34)CC2)cnn1-c1nn2c(F)ccc2c(=O)[nH]1 [Q-0624]"
  assay-target: "SNAP-hSPR (sepiapterin reductase, SPR) (Homo sapiens, UniProt P35270)"
  reported-result: 2
- compound: "Cc1c(C(=O)N2CCC(C(F)(F)F)CC2)cnn1-c1nc2ccsc2c(=O)[nH]1 [Q-0379]"
  assay-target: "SNAP-hSPR (sepiapterin reductase, SPR) (Homo sapiens, UniProt P35270)"
  reported-result: 2
- compound: "Cc1c(C(=O)N2CCN(c3ccc(F)cc3F)CC2)cnn1-c1nn2cccc2c(=O)[nH]1 [Q-0715]"
  assay-target: "SNAP-hSPR (sepiapterin reductase, SPR) (Homo sapiens, UniProt P35270)"
  reported-result: 2
- compound: "Cc1c(C(=O)N2C3CCC2CC(O)(c2ccccc2)C3)cnn1-c1nc2c(c(=O)[nH]1)CCC2 (centres unmarked) [Q-0509]"
  assay-target: "SNAP-hSPR (sepiapterin reductase, SPR) (Homo sapiens, UniProt P35270)"
  reported-result: 3
- compound: "O=C(c1cnn(-c2nn3c(F)ccc3c(=O)[nH]2)c1)N1CCC(C(F)(F)F)CC1 [Q-0525]"
  assay-target: "SNAP-hSPR (sepiapterin reductase, SPR) (Homo sapiens, UniProt P35270)"
  reported-result: 1
- compound: "Cc1c(C(=O)N2CCC(C3CC3)CC2)cnn1-c1nc2c(c(=O)[nH]1)CCC2 [Q-0451]"
  assay-target: "SNAP-hSPR (sepiapterin reductase, SPR) (Homo sapiens, UniProt P35270)"
  reported-result: 2
- compound: "O=C(c1cnn(-c2cc3nccn3c(=O)[nH]2)c1)N1CCC(C(F)(F)F)CC1 [Q-0452]"
  assay-target: "SNAP-hSPR (sepiapterin reductase, SPR) (Homo sapiens, UniProt P35270)"
  reported-result: 800
- compound: "Cc1c(C(=O)N2CC3CC(C2)N3C2CCC2)cnn1-c1nn2cccc2c(=O)[nH]1 [Q-1168]"
  assay-target: "SNAP-hSPR (sepiapterin reductase, SPR) (Homo sapiens, UniProt P35270)"
  reported-result: 3

====

pIC50: −log10 of the molar value.
// each record: one item and its pIC50 for SNAP-hSPR (sepiapterin reductase, SPR) (Homo sapiens, UniProt P35270)

- compound: "Cc1c(C(=O)N2CC3CC3(O)C2)cnn1-c1nc2ccsc2c(=O)[nH]1 (centres unmarked)"
  pIC50: 7.70
- compound: "Cc1c(C(=O)N2CC3(C2)CC(F)(F)C3)nnn1-c1nn2cccc2c(=O)[nH]1"
  pIC50: 9.00
- compound: "CN[C@@H]1CCN(C(=O)c2cnn(-c3nc4ccsc4c(=O)[nH]3)c2C)C1"
  pIC50: 6.70
- compound: "CCN(Cc1ccccc1)C(=O)c1cnn(-c2nc3c(c(=O)[nH]2)CCC3)c1C"
  pIC50: 8.15
- compound: "O=C(c1cnn(-c2nn3c(F)ccc3c(=O)[nH]2)c1C1CC1)N1CCC(C(F)(F)F)CC1"
  pIC50: 9.00
- compound: "Cc1c(C(=O)N2CCC3(CC2)CN(C(=O)OC(C)(C)C)C3)cnn1-c1nn2cccc2c(=O)[nH]1"
  pIC50: 8.70
- compound: "Cc1c(C(=O)N2CCC(CCCF)C2)cnn1-c1nn2cccc2c(=O)[nH]1 (centres unmarked)"
  pIC50: 9.00
- compound: "Cc1c(C(=O)N2CCc3nc(-c4cccnc4)sc3C2)cnn1-c1nn2cccc2c(=O)[nH]1"
  pIC50: 9.00
- compound: "O=C(c1cnn(-c2nn3cc(F)cc3c(=O)[nH]2)c1)N1CCC(CC(F)(F)F)CC1"
  pIC50: 8.40
- compound: "Cc1c(C(=O)N2CCC3(CCCCN3)C2)cnn1-c1nc2ccsc2c(=O)[nH]1 (centres unmarked)"
  pIC50: 7.15
- compound: "CC(C)(C#N)C1CCN(C(=O)c2cnn(-c3nc4c(c(=O)[nH]3)CCC4)c2)CC1"
  pIC50: 8.70
- compound: "CCn1ccc2c(=O)[nH]c(-n3ncc(C(=O)N4CCN(CC(F)(F)F)CC4)c3C)nc21"
  pIC50: 5.30
- compound: "O=C(c1cnn(-c2nc3ccsc3c(=O)[nH]2)c1)N1CCC(c2nc3ccccc3s2)CC1"
  pIC50: 7.15
- compound: "CCC(C#N)(CC)C1CCN(C(=O)c2cnn(-c3nc4c(c(=O)[nH]3)CCC4)c2C)CC1"
  pIC50: 9.00
- compound: "Cc1c(C(=O)N2CC(c3cncc(F)c3)C2)cnn1-c1nn2cccc2c(=O)[nH]1"
  pIC50: 8.70
- compound: "Cc1c(C(=O)N2c3ccccc3C[C@H]2C)cnn1-c1nc2ccsc2c(=O)[nH]1 (single isomer, unassigned)"
  pIC50: 8.22
- compound: "Cc1c(C(=O)N2CCC(c3nc4cc(F)ccc4s3)CC2)cnn1-c1nn2cccc2c(=O)[nH]1"
  pIC50: 8.15
